# test-context: in ethanol, 308.15 K
recorded-metric: solubility (mole fraction)
No unit in the answer, please; the number alone is enough.

IN: Consider the compound O=C(O)CC(S)C(=O)O (stereo unspecified) and give its measured solubility (mole fraction).
OUT: 0.244

---

# test-context: in acetonitrile, 318.15 K
recorded-metric: solubility (mole fraction)
// print number alone

IN: Look at this compound and give its reported solubility (mole fraction). O=C(O)CC(S)C(=O)O (stereo unspecified)
OUT: 0.108

---

# test-context: in ethyl acetate, 283.15 K
recorded-metric: solubility (mole fraction)
Simply state the number, no unit and no words.

IN: Which solubility (mole fraction) reading was recorded for the molecule O=C(O)CC(S)C(=O)O (stereo unspecified) ?
OUT: 0.0482

---

# test-context: in acetonitrile, 333.15 K
recorded-metric: solubility (mole fraction)

IN: So what's the measured solubility (mole fraction) for this one? O=C(O)CC(S)C(=O)O (stereo unspecified)
OUT: 0.206

---

# test-context: in isopropanol, 318.15 K
recorded-metric: solubility (mole fraction)
Give a plain numeric answer without units written out.

IN: Which solubility (mole fraction) is reported for this compound? O=C(O)CC(S)C(=O)O (stereo unspecified)
OUT: 0.233

---

# test-context: in ethyl acetate, 293.15 K
recorded-metric: solubility (mole fraction)
The reply should be a number, written without any unit.

IN: Please give the measured solubility (mole fraction) for this compound: O=C(O)CC(S)C(=O)O (stereo unspecified)
OUT: 0.0547

---

# test-context: in acetonitrile, 303.15 K
recorded-metric: solubility (mole fraction)
I only need the number, thanks.

IN: Please give the measured solubility (mole fraction) for this compound: O=C(O)CC(S)C(=O)O (stereo unspecified)
OUT: 0.0513

---

# test-context: in acetone, 283.15 K
recorded-metric: solubility (mole fraction)
// no unit string in output, number only

IN: Fill in the blank: the reported solubility (mole fraction) of O=C(O)CC(S)C(=O)O (stereo unspecified) is ____.
OUT: 0.142

---

# test-context: in isopropanol, 293.15 K
recorded-metric: solubility (mole fraction)
Reply with the value as a number alone.

IN: Any idea what its solubility (mole fraction) is? The compound is O=C(O)CC(S)C(=O)O (stereo unspecified)
OUT: 0.141

---

# test-context: in methanol, 303.15 K
recorded-metric: solubility (mole fraction)

IN: Which measured solubility (mole fraction) value corresponds to O=C(O)CC(S)C(=O)O (stereo unspecified) ?
OUT: 0.228

---

# test-context: in acetone, 303.15 K
recorded-metric: solubility (mole fraction)

IN: Consider the compound O=C(O)CC(S)C(=O)O (stereo unspecified) and give its measured solubility (mole fraction).
OUT: 0.178

---

# test-context: in methanol, 333.15 K
recorded-metric: solubility (mole fraction)

IN: For the compound shown here, O=C(O)CC(S)C(=O)O (stereo unspecified) , give the reported solubility (mole fraction).
OUT: 0.412

---

# test-context: in isopropanol, 278.15 K
recorded-metric: solubility (mole fraction)
Answer field: number only, no words.

IN: # query: solubility (mole fraction) of entry O=C(O)CC(S)C(=O)O (stereo unspecified)
OUT: 0.1

---

# test-context: in ethanol, 293.15 K
recorded-metric: solubility (mole fraction)
The answer should be written as a number, with no unit following it.

IN: May I ask what solubility (mole fraction) has been recorded for O=C(O)CC(S)C(=O)O (stereo unspecified) ?
OUT: 0.186

---

# test-context: in acetone, 278.15 K
recorded-metric: solubility (mole fraction)
Reply: number alone, nothing else.

IN: Can you share its solubility (mole fraction)? I mean this compound: O=C(O)CC(S)C(=O)O (stereo unspecified)
OUT: 0.133

---

# test-context: in ethanol, 283.15 K
recorded-metric: solubility (mole fraction)
Lab note: jot down the number only; don't add units.

IN: Please report the recorded solubility (mole fraction) for O=C(O)CC(S)C(=O)O (stereo unspecified) .
OUT: 0.154

---

# test-context: in acetone, 308.15 K
recorded-metric: solubility (mole fraction)
Give the value as a plain number.

IN: # input compound: O=C(O)CC(S)C(=O)O (stereo unspecified) ; wanted: its solubility (mole fraction)
OUT: 0.19

---

# test-context: in isopropanol, 298.15 K
recorded-metric: solubility (mole fraction)

IN: Request the reported solubility (mole fraction) associated with O=C(O)CC(S)C(=O)O (stereo unspecified)
OUT: 0.156

---

# test-context: in isopropanol, 288.15 K
recorded-metric: solubility (mole fraction)
Returns: the value as a bare number; no unit string appended.

IN: Query: solubility (mole fraction); subject: O=C(O)CC(S)C(=O)O (stereo unspecified)
OUT: 0.126

---

# test-context: in methanol, 283.15 K
recorded-metric: solubility (mole fraction)
A bare number is all that is needed in reply.

IN: I have this compound here, O=C(O)CC(S)C(=O)O (stereo unspecified) , and I need its recorded solubility (mole fraction).
OUT: 0.136

---

# test-context: in methanol, 318.15 K
recorded-metric: solubility (mole fraction)
Answer field: number only, no words.

IN: So what does the record say about solubility (mole fraction) for O=C(O)CC(S)C(=O)O (stereo unspecified) ?
OUT: 0.314

---

# test-context: in isopropanol, 283.15 K
recorded-metric: solubility (mole fraction)
The response must contain the number and no unit.

IN: Requested read-out: solubility (mole fraction). Entry: O=C(O)CC(S)C(=O)O (stereo unspecified)
OUT: 0.112

---

# test-context: in methanol, 323.15 K
recorded-metric: solubility (mole fraction)
// return just the number, without any unit appended

IN: Name the recorded solubility (mole fraction) for O=C(O)CC(S)C(=O)O (stereo unspecified) .
OUT: 0.345

---

# test-context: in n-butanol, 278.15 K
recorded-metric: solubility (mole fraction)
The answer should be a number; do not append a unit.

IN: Which value of solubility (mole fraction) has been reported for O=C(O)CC(S)C(=O)O (stereo unspecified) in the records?
OUT: 0.0909

---

# test-context: in isopropanol, 313.15 K
recorded-metric: solubility (mole fraction)
Answer using only a numeral; do not append any unit.

IN: May I ask what solubility (mole fraction) has been recorded for O=C(O)CC(S)C(=O)O (stereo unspecified) ?
OUT: 0.212
